molecular target: MAGI2_2, Q86UL8; assay: holdup assay; set-up: key: below the threshold = too weak to quantify, mostly under pKd 3.1 to 4; settings: plain residues with an end cap or a label only (N-terminal biotin on a linker: ado-ado)
Sequence (Q86UL8 410-522): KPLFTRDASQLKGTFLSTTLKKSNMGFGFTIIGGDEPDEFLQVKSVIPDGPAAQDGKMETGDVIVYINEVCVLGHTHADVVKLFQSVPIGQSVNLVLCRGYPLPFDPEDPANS
MEASURE: pKd

{"columns": ["BINDER", "pKd"],
 "data": [
  ["SSSVNVSSNL [CXCR1, P25024]", "below the threshold"],
  ["KLQNPNQSVV [TYRP1, P17643]", 4],
  ["KIEDVEITLV [FCHSD2, O94868]", 3.77],
  ["EKPIDSETKM [SLC1A3, P43003]", "below the threshold"],
  ["GDSSRKEYFI [GYPC, P04921]", 3.6],
  ["GTMFLRETSL [GUCY1A2, P33402]", 4.29],
  ["DYSNLRETDI [ADRA1D, P25100]", "below the threshold"],
  ["MQILSKPEFI [NPSR1, Q6W5P4]", "below the threshold"],
  ["FVFESRKEIL [TBPL1, P62380]", "below the threshold"],
  ["EFKQTSSFLV [JAM1, Q9Y624]", 3.72]
]}

The record that follows has no pKd shown yet.
(Q) Hello, please tell me recorded pKd for this one: IQISELETNV [SLC1A7, O00341]
(A) below the threshold
